Provenance of the data: patent US9353101B2

- target-of-assay: CETP (Homo sapiens (Human), UniProt P11597)
- Sequence (P11597 18-493): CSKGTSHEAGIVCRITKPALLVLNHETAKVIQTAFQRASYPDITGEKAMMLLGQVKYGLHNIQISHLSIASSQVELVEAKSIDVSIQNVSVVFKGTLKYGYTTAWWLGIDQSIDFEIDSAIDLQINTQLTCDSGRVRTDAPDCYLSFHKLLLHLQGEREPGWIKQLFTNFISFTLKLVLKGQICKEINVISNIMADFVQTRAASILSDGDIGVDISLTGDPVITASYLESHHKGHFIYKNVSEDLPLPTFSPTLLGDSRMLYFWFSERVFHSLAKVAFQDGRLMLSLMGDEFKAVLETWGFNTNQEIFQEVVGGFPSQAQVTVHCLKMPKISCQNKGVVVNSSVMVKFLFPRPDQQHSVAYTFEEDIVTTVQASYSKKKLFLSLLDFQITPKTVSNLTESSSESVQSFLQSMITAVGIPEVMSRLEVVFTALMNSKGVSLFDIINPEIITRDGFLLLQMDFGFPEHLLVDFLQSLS
- experiment: Scintillation Proximity Assay (SPA) for CETP Activity
- Format: biochemical
- applied-conditions: 15 nM CETP, biotinylated LDL, 3H-cholesterol ester HDL; read-out: SPA IC50 (CETP Inhibition)
Entries and their pIC50
For clarity, pIC50 is expressed as the negative log10 of concentration in mol/L.

smiles-str	recorded-value
COc1ncc(Cl)cc1-c1cnc(N2CCOCC2)nc1CN1C(=O)O[C@H](c2cc(C(F)(F)F)cc(C(F)(F)F)c2)[C@@H]1C	6.17
COc1ncc(C2CC2)cc1-c1cnc(N2CCOCC2)nc1CN1C(=O)O[C@H](c2cc(C(F)(F)F)cc(C(F)(F)F)c2)[C@@H]1C	6.28
COc1ncc(C(C)C)cc1-c1cnc(N2CC(F)C2)nc1CN1C(=O)O[C@H](c2cc(C(F)(F)F)cc(C(F)(F)F)c2)[C@@H]1C	7.96

Lab book: pIC50 of `COc1ncc(C(C)C)cc1-c1cnc(N2CCOCC2)nc1CN1C(=O)O[C@H](c2cc(C(F)(F)F)cc(C(F)(F)F)c2)[C@@H]1C` noted as 6.64
